Can you tell me IC50 (read off the curve), % Inhibition for the items I'm about to list?
# System Tested: human complement Component 5 (C5) (human, UniProt P01031 19-1676, limits assumed)
# Sequence (P01031 19-1676 limits assumed): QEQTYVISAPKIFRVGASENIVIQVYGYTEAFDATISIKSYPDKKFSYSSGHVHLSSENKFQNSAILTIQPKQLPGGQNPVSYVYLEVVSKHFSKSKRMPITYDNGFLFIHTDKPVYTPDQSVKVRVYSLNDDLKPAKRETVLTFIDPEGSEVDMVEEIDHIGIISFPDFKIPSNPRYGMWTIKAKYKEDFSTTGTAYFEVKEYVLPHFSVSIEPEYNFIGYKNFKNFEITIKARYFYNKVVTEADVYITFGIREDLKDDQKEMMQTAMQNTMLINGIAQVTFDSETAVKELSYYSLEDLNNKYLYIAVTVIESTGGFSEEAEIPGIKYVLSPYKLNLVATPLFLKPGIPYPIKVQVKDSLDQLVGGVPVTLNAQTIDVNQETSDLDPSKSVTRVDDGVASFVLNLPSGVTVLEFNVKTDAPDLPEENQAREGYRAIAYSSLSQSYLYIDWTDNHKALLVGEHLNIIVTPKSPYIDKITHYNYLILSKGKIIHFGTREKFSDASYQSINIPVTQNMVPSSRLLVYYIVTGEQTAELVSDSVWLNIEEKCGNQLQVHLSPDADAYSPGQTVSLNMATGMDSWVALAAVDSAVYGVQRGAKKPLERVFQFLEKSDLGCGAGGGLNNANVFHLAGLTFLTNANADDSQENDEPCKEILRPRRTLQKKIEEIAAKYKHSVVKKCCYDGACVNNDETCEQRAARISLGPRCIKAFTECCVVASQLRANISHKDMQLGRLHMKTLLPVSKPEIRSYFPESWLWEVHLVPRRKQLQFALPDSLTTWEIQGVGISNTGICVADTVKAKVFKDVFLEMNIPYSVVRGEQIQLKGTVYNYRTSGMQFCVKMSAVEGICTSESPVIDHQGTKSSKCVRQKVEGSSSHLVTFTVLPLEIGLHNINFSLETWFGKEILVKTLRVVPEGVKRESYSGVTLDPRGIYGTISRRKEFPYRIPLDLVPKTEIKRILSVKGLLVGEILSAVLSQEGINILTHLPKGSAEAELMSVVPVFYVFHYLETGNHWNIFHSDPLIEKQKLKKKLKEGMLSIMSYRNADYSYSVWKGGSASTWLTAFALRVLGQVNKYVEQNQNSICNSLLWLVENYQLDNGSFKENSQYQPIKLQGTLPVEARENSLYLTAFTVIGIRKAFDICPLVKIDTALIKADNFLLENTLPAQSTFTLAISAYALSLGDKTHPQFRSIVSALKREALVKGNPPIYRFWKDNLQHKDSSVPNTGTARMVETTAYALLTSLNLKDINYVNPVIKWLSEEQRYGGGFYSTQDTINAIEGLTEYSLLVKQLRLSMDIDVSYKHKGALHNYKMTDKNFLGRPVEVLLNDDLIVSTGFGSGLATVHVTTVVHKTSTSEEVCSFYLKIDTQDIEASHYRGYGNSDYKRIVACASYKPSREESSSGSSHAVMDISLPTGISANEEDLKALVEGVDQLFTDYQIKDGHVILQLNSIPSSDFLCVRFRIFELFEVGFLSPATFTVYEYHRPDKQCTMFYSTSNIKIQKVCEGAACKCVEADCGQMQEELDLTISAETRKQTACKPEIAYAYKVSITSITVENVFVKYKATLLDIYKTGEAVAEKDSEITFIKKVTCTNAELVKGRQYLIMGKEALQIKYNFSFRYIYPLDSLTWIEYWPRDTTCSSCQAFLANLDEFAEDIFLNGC
# Protocol Description: cell-based or functional assay

Give me IC50 (read off the curve), % Inhibition for each of these binders, listed below.
1. H1L4-IgG (antibody, V domains shown) VH: QVQLVQSGAEVKKPGASVKVSCKASGYTFTDEYMNWVRQAPGQSLEWMGYINPNNGGADYNQKFQGRVTMTVDQSISTAYMELSRLRSDDTAVYFCARLGYSNPYFDFWGQGTLVTVSS VL: DIVLTQSPATLSLSPGERATLSCRASQDVNTAVAWYQQKPGKSPKLLIYWASTRHTGVPARFTGSGSGTDYTLTISSLQPEDFAVYFCQQHHVSPWTFGGGTKVEIK
2. H1L3-IgG (antibody, V domains shown) VH: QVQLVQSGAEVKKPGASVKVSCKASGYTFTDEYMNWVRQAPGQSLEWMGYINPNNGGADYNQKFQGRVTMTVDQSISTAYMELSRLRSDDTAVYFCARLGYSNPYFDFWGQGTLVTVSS VL: DIVLTQSPSFLSASVGDRVTITCQASQDVNTAVAWYLQKPGKSPKLLIYWASTRHTGVPARFTGSGSGTDYTLTISSLQPEDFAVYFCQQHHVSPWTFGGGTKVEIK

1. ~3 µg/mL
2. ~3 µg/mL
